The reported numbers originate from paper PMC4872389.

assay-explanation: Plasma and tissue D, DA, DOH after a single gavage dose of D/DA
Assay type: in vivo, male C57BL/6 mice
cond: male, C57BL/6, mouse, plasma, po, 3 mg
In this section we review reported Cmax values for a set of molecules.
Unit nM implied. Number only.

                                   molecule  quantitative_result
0  CC(C)=CC(=O)O[C@H]1Cc2cc3ccc(=O)oc3cc2OC1(C)C                  380
1  C/C=C(/C)C(=O)O[C@H]1Cc2cc3ccc(=O)oc3cc2OC1(C)C [DA, decursinol angelate]                  760

Now turn to the next molecule.
Input: Param item = `CC1(C)Oc2cc3oc(=O)ccc3cc2C[C@@H]1O` ; retrieve measured Cmax.
Output: 39800

====

assay-explanation: Plasma and tissue D, DA, DOH after sub-chronic dietary AGN exposure
Format: in vivo, male C57BL/6J mice
cond: male, C57BL/6J, mouse, kidney, oral
parameter-measured: concentration at 6 weeks (µM)
# unit: µM | format: bare number

Input: GET /values?readout=concentration at 6 weeks&item= `CC1(C)Oc2cc3oc(=O)ccc3cc2C[C@@H]1O`
Output: 14.4

====

assay-explanation: Plasma and tissue D, DA, DOH after sub-chronic dietary AGN exposure
Assay type: in vivo, male C57BL/6J mice
cond: male, C57BL/6J, mouse, lung, oral
parameter-measured: concentration at 6 weeks (µM)
Write it as a number; the unit µM goes unstated.

Input: Bench note: what concentration at 6 weeks did CC1(C)Oc2cc3oc(=O)ccc3cc2C[C@@H]1O [DOH, decursinol] show?
Output: 3.33

====

assay-explanation: Plasma and tissue D, DA, DOH after sub-chronic dietary AGN exposure
Type: in vivo, male C57BL/6J mice
cond: male, C57BL/6J, mouse, prostate, oral
parameter-measured: concentration at 6 weeks (µM)
# number only, unit µM dropped from output

Input: Any idea what concentration at 6 weeks was measured for `CC1(C)Oc2cc3oc(=O)ccc3cc2C[C@@H]1O` ?
Output: 12.8
